# Assay Procedure: total protein half-life in vivo (active degradation + dilution); higher = more stable protein
# Test Context: wild type E. coli NCM3722; growth: P-lim chemostat; doubling time 12 h
# total protein half-life in vivo listing for each entry below

Residue Sequence	total protein half-life in vivo
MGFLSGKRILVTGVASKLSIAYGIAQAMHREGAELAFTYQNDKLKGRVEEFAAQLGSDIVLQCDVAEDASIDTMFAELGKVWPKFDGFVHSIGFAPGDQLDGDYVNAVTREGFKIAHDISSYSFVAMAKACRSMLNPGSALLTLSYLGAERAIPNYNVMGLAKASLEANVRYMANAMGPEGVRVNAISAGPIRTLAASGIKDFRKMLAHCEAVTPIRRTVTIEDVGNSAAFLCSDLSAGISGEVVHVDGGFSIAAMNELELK [P0AEK4]	13.7 h
MSTTNHDHHIYVLMGVSGSGKSAVASEVAHQLHAAFLDGDFLHPRRNIEKMASGEPLNDDDRKPWLQALNDAAFAMQRTNKVSLIVCSALKKHYRDLLREGNPNLSFIYLKGDFDVIESRLKARKGHFFKTQMLVTQFETLQEPGADETDVLVVDIDQPLEGVVASTIEVIKKGK	9.14 h
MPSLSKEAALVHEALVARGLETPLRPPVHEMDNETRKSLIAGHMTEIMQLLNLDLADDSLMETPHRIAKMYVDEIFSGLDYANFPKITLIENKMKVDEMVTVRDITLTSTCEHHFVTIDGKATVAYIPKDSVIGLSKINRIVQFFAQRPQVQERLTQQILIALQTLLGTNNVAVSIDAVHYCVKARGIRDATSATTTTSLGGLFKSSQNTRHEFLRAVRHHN [P0A6T5]	8.1 h

* * *

# Assay Procedure: total protein half-life in vivo (active degradation + dilution); higher = more stable protein
# Test Context: wild type E. coli NCM3722; growth: P-lim chemostat; doubling time 6 h
Please assign a class to every record based on measured total protein half-life in vivo, with ranges low bin (below 4 h), mid bin (4 h to below 5 h), high bin (5 h or more)

Residue Sequence	Label Value
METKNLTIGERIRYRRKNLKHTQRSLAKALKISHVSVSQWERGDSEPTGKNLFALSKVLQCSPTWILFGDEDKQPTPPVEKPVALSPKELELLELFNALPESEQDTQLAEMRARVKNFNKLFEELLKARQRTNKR	high bin
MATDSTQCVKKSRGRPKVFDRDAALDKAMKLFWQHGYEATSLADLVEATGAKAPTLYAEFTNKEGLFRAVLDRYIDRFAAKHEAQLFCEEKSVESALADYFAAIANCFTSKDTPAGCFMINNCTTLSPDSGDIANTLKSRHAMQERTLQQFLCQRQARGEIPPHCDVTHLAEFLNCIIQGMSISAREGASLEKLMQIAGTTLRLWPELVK	low bin
MSDLLCSAKLGAMTLALLLSATSLSALASVTPDRTRLIFNESDKSISVTLRNNDPKLPYLAQSWIEDEKGNKITSPLTVLPPVQRIDSMMNGQVKVQGMPDINKLPADRESMFYFNVREIPPKSNKPNTLQIALQTRIKLFWRPKALEKVSMKSPWQHKVTLTRSGQAFTVNNPTPYYVIISNASAQKNGNPAAGFSPLVIEPKTTVPLNVKMDSVPVLTYVNDFGARMPLFFQCNGNSCQVDEEQSRKG	mid bin
MSEFDAQRVAERIDIVLDILVAGDYHSAIHNLEILKAELLRQVAESTPDIPKAPWEI [A5A614]	low bin
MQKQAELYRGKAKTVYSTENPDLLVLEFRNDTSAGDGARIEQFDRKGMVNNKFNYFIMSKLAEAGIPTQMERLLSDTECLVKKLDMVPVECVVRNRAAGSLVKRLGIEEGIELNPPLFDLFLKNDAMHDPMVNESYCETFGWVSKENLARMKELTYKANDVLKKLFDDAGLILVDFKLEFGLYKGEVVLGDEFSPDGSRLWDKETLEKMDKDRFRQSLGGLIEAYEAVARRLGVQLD [P0A7D7]	high bin
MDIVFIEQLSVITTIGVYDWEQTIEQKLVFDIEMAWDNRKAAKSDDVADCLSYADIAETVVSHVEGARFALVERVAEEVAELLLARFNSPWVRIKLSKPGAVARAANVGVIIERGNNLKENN [P0AC16]	high bin
MDLRRFITLKTVVEEGSFLRASQKLCCTQSTVTFHIQQLEQEFSVQLFEKIGRRMCLTREGKKLLPHIYELTRVMDTLREAAKKESDPDGELRVVSGETLLSYRMPQVLQRFRQRAPKVRLSLQSLNCYVIRDALLNDEADVGVFYRVGNDDALNRRELGEQSLVLVASPQIADVDFTEPGRHNACSFIINEPQCVFRQIFESTLRQRRITVENTIELISIESIKRCVAANIGVSYLPRFAVAKELECGELIELPFGEQSQTITAMCAHHAGKAVSPAMHTFIQCVEESFVAG	high bin
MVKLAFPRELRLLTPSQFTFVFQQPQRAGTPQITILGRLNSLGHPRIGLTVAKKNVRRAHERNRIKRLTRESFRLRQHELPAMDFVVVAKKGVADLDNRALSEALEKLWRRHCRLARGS [P0A7Y8]	low bin
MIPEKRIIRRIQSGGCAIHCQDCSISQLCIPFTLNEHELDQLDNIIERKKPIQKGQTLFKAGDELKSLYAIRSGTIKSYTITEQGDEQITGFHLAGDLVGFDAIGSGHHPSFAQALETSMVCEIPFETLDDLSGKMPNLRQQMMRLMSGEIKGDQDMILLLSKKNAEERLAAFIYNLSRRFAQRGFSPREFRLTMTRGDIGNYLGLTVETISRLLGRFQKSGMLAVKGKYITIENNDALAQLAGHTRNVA [P0A9E5]	low bin
MRRFFWLVAAALLLAGCAGEKGIVEKEGYQLDTRRQAQAAYPRIKVLVIHYTADDFDSSLATLTDKQVSSHYLVPAVPPRYNGKPRIWQLVPEQELAWHAGISAWRGATRLNDTSIGIELENRGWQKSAGVKYFAPFEPAQIQALIPLAKDIIARYHIKPENVVAHADIAPQRKDDPGPLFPWQQLAQQGIGAWPDAQRVNFYLAGRAPHTPVDTASLLELLARYGYDVKPDMTPREQRRVIMAFQMHFRPTLYNGEADAETQAIAEALLEKYGQD	high bin
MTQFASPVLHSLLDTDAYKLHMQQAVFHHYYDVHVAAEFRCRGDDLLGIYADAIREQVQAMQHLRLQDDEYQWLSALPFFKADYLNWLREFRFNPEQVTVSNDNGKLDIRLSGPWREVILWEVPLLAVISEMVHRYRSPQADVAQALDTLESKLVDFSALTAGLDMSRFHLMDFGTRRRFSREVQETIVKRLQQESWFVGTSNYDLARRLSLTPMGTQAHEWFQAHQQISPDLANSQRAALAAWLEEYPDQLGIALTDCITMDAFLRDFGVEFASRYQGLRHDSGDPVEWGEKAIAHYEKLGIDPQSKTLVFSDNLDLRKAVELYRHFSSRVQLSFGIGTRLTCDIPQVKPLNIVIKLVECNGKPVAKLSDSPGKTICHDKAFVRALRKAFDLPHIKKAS	low bin
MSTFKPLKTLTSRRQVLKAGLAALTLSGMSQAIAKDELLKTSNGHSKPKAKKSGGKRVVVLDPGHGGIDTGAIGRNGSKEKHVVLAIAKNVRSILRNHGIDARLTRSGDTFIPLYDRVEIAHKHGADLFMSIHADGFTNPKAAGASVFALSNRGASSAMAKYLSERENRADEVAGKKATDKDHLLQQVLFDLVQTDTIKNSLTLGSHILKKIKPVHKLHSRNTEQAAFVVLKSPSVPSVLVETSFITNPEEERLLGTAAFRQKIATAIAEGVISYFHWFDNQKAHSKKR	mid bin

Measured values drawn from the supplement of paper PMC11246515 for this set.
